System: Plasmodium berghei
Assay: Screen against P. berghei liver stage (PbLuc), transformed with Luciferase, at 10uM
Format: functional, HepG2
Conditions: tested at 10 uM
The campaign covered roughly 69,000 compounds. About 8,600 (12%) showed an effect of 50% or more. The sample as a whole holds a higher share of strong results than the screen did.
Overview of reported INHIBITION across a group of compounds:
Answer shape: numeric part, then the unit.

These solved cases illustrate the format of a correct answer.
{"compound": "O=c1ccc2c(n1CC1CCOCC1)CCN(Cc1ccoc1)CC2", "measurement-name": "INHIBITION", "result": "5.41%"}
{"compound": "CN(C)CCn1c2c(ccc1=O)CCN(Cc1cnn(C)c1)CC2", "measurement-name": "INHIBITION", "result": "-3.26%"}
{"compound": "CC(=O)N[C@@H]1CN(C(=O)Cc2coc3cc(C)ccc23)C[C@H]1O", "measurement-name": "INHIBITION", "result": "-5.8%"}
{"compound": "CS(=O)(=O)N1C[C@@H](C(=O)Nc2cnccn2)C[C@H]2OCC[C@H]21", "measurement-name": "INHIBITION", "result": "39.3%"}

**Query** Form field: INHIBITION recorded for Cc1ccc(-c2nc(CC(=O)NCC3CCCOC3)cs2)o1 (stereo unspecified) with Plasmodium berghei (enter value)
**Result** 44.3%

**Query** // lookup INHIBITION | system=Plasmodium berghei | key= Nc1nnc(CCCn2nnc(-c3ccccc3F)n2)s1
**Result** 44.7%

**Query** Hello, I am looking for reported INHIBITION with Plasmodium berghei for Cc1c(NC(C)C(C)C)cccc1C(=O)NCc1ccnn1C (stereo unspecified) . Could you help?
**Result** 62.7%

**Query** Given the entry Cn1cnc2c1CCN(Cc1csc(C3CCCCC3)n1)C2 , what INHIBITION was observed with Plasmodium berghei?
**Result** 33.3%

**Query** // map Cc1ccc(OCCCNC(=O)CN(C)c2ccc(C#N)cn2)cc1 to recorded INHIBITION (system: Plasmodium berghei)
**Result** 49.3%

###

System: Plasmodium berghei
Assay: Screen against P. berghei liver stage (PbLuc), transformed with Luciferase, at 10uM
Format: functional, HepG2
Details: tested at 10 uM
The whole screen tested about 69,000 compounds, of which about 8,600 (12%) showed an effect of 50% or more. This is one part of a sample in which strong results are shown more often than they occur.
Known INHIBITION of a selection of molecules
# do not omit the unit; it follows the number

The examples below pair each entry with its known result.
{"molecule": "Cc1cc(CN(C)C(=O)C2CC(c3cccc(F)c3)=NO2)no1 (stereo unspecified)", "experimental-system": "Plasmodium berghei", "INHIBITION": "7.24%"}
{"molecule": "CCNc1ncc(C)c(-c2cnn(C)c2)n1", "experimental-system": "Plasmodium berghei", "INHIBITION": "27.6%"}
{"molecule": "CCCOC(=O)N1CCCC2(CCN(Cc3cccc(C#N)c3)C2)C1 (stereo unspecified)", "experimental-system": "Plasmodium berghei", "INHIBITION": "2.7%"}
{"molecule": "CN1CCC2(COCCN(Cc3ccc4c(c3)OCO4)C2)C1 (stereo unspecified)", "experimental-system": "Plasmodium berghei", "INHIBITION": "61.5%"}
{"molecule": "CN(C)c1cc(C(=O)N2CCN(c3nccs3)CC2)ccn1", "experimental-system": "Plasmodium berghei", "INHIBITION": "-43.9%"}
{"molecule": "Cc1cnc(CNc2ncc(C)c(-c3cnn(C)c3)n2)cn1", "experimental-system": "Plasmodium berghei", "INHIBITION": "39.4%"}
{"molecule": "COc1cc(CN2CC[C@@H](N3CCCCCC3)[C@H](O)C2)cc(Cl)c1OC", "experimental-system": "Plasmodium berghei", "INHIBITION": "1.56%"}
{"molecule": "Cc1cc(N(C)Cc2cc(C(C)(C)C)n[nH]2)nc(-c2cccnc2)n1", "experimental-system": "Plasmodium berghei", "INHIBITION": "76.5%"}

**Query** Give its INHIBITION value. Item: CCc1cc(C(=O)N2CC[C@@H](c3ccc4c(c3)OCO4)[C@H](O)C2)ccn1
**Result** 26.5%

**Query** What does the record list as INHIBITION for C[C@H]1C[C@H]2CN(S(=O)(=O)c3ccc(F)cc3)CC[C@H]2O1 ?
**Result** -7.28%

**Query** Return reported INHIBITION; argument: O=c1ccc(-c2ccccc2F)nn1CN1CCCCCC1
**Result** -22.9%

###

Entries and their measured INHIBITION follow.
Tested on: Plasmodium berghei
Test: Screen against P. berghei liver stage (PbLuc), transformed with Luciferase, at 10uM
Format: functional, HepG2
Details: tested at 10 uM
The whole screen tested about 69,000 compounds, of which about 8,600 (12%) showed an effect of 50% or more. Only a selection was taken, and strong results are over-represented in it overall.
The reply should be a number in %, with the unit left off.

Recorded results for 4 molecules are shown here.
{"molecule": "CC1CCN(C(=O)c2ccn(COc3ccccc3)n2)CC1", "readout-number": -15.5}
{"molecule": "CN(Cc1ccco1)C(=O)CN1CCCC1c1cccs1 (centres undefined)", "readout-number": 62.3}
{"molecule": "COc1ccccc1NC(=O)CCNC(=O)c1ccoc1", "readout-number": -37.8}
{"molecule": "Cc1noc(C)c1C(=O)N1CC[C@]2(C[C@@H](OCc3cccnc3)CO2)C1", "readout-number": 10.1}

**Query** For the molecule N#CCCN(Cc1ccco1)C(=O)CN1CCCC1c1cccs1 (centres undefined) , what INHIBITION is on record?
**Result** 29.4

**Query** Fill in the blank: the reported INHIBITION of Cc1ccc2nc(C3CCN(CC(C)C)CC3)nc(O)c2c1 is ____.
**Result** -8.07

**Query** Which INHIBITION is listed for c1ccc(Cc2noc(CN3CCOC(Cn4cccn4)C3)n2)cc1 (centres undefined) ?
**Result** 24

**Query** Requested field: INHIBITION. Item: O=C(NC(Cc1ccsc1)c1nccs1)C1CC1 (centres undefined)
**Result** 12.3

**Query** Looking for the measured INHIBITION of Cc1noc(C)c1CN1CCn2cc(CNC(=O)C3CCC3)nc2C1 , can you help?
**Result** 45.2

###

System: Plasmodium berghei
Assay: Screen against P. berghei liver stage (PbLuc), transformed with Luciferase, at 10uM
Type: functional, HepG2
Conditions: tested at 10 uM
About 8,600 (12%) of roughly 69,000 compounds showed an effect of 50% or more. This excerpt belongs to a sample that is enriched for strong results.
measurement-name: INHIBITION (%)
Field: numeric (%). Do not append units.

# count of solved cases: 5
{"compound": "CC(=O)N1CCCC1(C(=O)N1CCCC1)c1cnccn1 (configuration not stated)", "INHIBITION / %": 6.35}
{"compound": "COC(=O)Cn1c(=O)[nH]c2cn(-c3ccc(Br)cc3)c(=O)n21", "INHIBITION / %": -38.6}
{"compound": "Cn1ccc(C(=O)N2CCN(c3nccs3)CC2)cc1=O", "INHIBITION / %": 28.8}
{"compound": "Cc1ccc(-c2cc(C)nc(C3CCCN3S(C)(=O)=O)n2)cc1 (configuration not stated)", "INHIBITION / %": -70.8}
{"compound": "Cc1cnn(CC2CCCN2C(=O)CCc2ccncc2)c1 (configuration not stated)", "INHIBITION / %": -14}

**Query** Please look up its INHIBITION: c1cc(-c2cscn2)cc(N2CCC(NCCc3cccs3)CC2)c1
**Result** 75.5

**Query** Quick one: INHIBITION for CNCCNc1nccc(-c2cn(C)nc2C)n1 ?
**Result** 19.4

**Query** Fill in the blank: the reported INHIBITION of Cc1ccc(N2CCCC(NCc3cscn3)C2)nn1 (configuration not stated) is ____.
**Result** 26.8

**Query** Can you share its INHIBITION? I mean this compound: O=C(NCCc1cccs1)NC1CCN(c2ncccn2)CC1
**Result** -89

**Query** Need INHIBITION, item CCN1CC2(CC1=O)CN(C(C)=O)CCN(C(=O)NC(C)C)C2 (configuration not stated)
**Result** -17.2

**Query** # INHIBITION lookup, item CN(C)[C@H]1CN(C(=O)CCc2cccc(F)c2)C[C@@H]1C1CC1
**Result** 30.9

**Query** # lookup: INHIBITION of Cc1cc(C)n(CC2CN(c3cnc4ccccc4n3)CCO2)n1 (configuration not stated)
**Result** 29.7

###

Measured INHIBITION, listed per entry for reference.
System: Plasmodium berghei
Test: Screen against P. berghei liver stage (PbLuc), transformed with Luciferase, at 10uM
Format: functional, HepG2
Settings: tested at 10 uM
About 8,600 (12%) of roughly 69,000 compounds showed an effect of 50% or more. This is one part of a sample in which strong results are shown more often than they occur.
# number only, unit % dropped from output

The following compounds have reported results that may help.
{"compound": "O=C(CNC(=O)c1ccccc1Cl)Nc1nccs1", "INHIBITION, %": -9.72}
{"compound": "CS(=O)(=O)c1cncnc1C1CCCN(C(=O)Cc2ccccc2F)C1 (stereo unspecified)", "INHIBITION, %": 17.985}
{"compound": "O=C(c1cccc(-c2ccc(F)cc2)c1)N1CCC2(CC1)[C@H](O)C[C@@H]2O", "INHIBITION, %": -8.47}

**Query** Any idea what INHIBITION came out for COc1ccc2c(c1)sc(=NC(=O)CSCC(=O)Nc1nccs1)n2C on Plasmodium berghei?
**Result** 51

**Query** Item: CN1CCCCC12CCN(c1nncs1)CC2 Test system: Plasmodium berghei Read-out: INHIBITION Value: ?
**Result** -0.804

**Query** Give recorded INHIBITION with Plasmodium berghei for the following compound: CS(=O)(=O)N1CCOCC12CCN(c1nncs1)CC2
**Result** 26.5

**Query** Item Cc1sc2c(C3CCCNC3)nc(Nc3cccc(F)c3)n2c1C (stereo unspecified) with Plasmodium berghei - INHIBITION?
**Result** 36.5

**Query** Form entry - test system: Plasmodium berghei; read-out: INHIBITION; compound: Cn1c(=NC(=O)CSCC(=O)Nc2nccs2)sc2ccccc21
**Result** 32.8

**Query** Test system Plasmodium berghei; read-out INHIBITION; what value for CCN1CC[C@@]2(C(=O)N3CCOCC3)CCN(S(=O)(=O)CC)CC[C@@H]12 ?
**Result** 17.4

**Query** Request: INHIBITION, test system Plasmodium berghei, entry O=C([C@H]1CN(CCc2ccccc2)C[C@H]2OCC[C@@H]12)N1CCCO1
**Result** 8.57

**Query** INHIBITION of Fc1cnc(N2CCO[C@H]3[C@H](OCCN4CCCC4)CC[C@@H]32)nc1 on Plasmodium berghei?
**Result** 4.68
